All figures here come from patent US12624118B2.

# assay.comment: Thermal stability by differential scanning fluorimetry (DSF)
# Type: physicochemical
# test.settings: Sypro Orange; 25° C. to 95° C. at 0.5° C./minute
measured.property: Tm (° C.) By Differential Scanning Fluorimetry (DSF) (°C)

# molecule, output.unit, test.result
data = [
    ("IgV V45C_M114C: CD58 domain 1 with V45 and M114 replaced by cysteines to form a disulfide bridge (protein) SQQIYGVVYGNVTFHCPSNVPLKEVLWKKQKDKVAELENSEFRAFSSFKNRVYLDTVSGSLTIYNLTSSDEDEYEMESPNITDTCKFFLYVLESGGGGSHHHHHHHH", "°C", 63.5),
    ("IgV V45C_M105C: CD58 domain 1 with V45 and M105 replaced by cysteines to form a disulfide bridge (protein) SQQIYGVVYGNVTFHCPSNVPLKEVLWKKQKDKVAELENSEFRAFSSFKNRVYLDTVSGSLTIYNLTSSDEDEYECESPNITDTMKFFLYVLESGGGGSHHHHHHHH", "°C", 48.5),
    ("CD58_IgV: IgV domain (domain 1) of human CD58, without stabilizing disulfide (protein) SQQIYGVVYGNVTFHVPSNVPLKEVLWKKQKDKVAELENSEFRAFSSFKNRVYLDTVSGSLTIYNLTSSDEDEYEMESPNITDTMKFFLYVLESGGGGSHHHHHHHH", "°C", 48.5),
    ("IgV V54C_G88C: CD58 domain 1 with V54 and G88 replaced by cysteines to form a disulfide bridge (protein) SQQIYGVVYGNVTFHVPSNVPLKECLWKKQKDKVAELENSEFRAFSSFKNRVYLDTVSCSLTIYNLTSSDEDEYEMESPNITDTMKFFLYVLESGGGGSHHHHHHHH", "°C", 76.5),
    ("CD58 Full ECD: recombinant human CD58 full extracellular domain with C-terminal 8×his tag (protein, C-terminal 8xHis tag, recombinant human CD58 full extracellular domain with C-terminal 8×his tag) SQQIYGVVYGNVTFHVPSNVPLKEVLWKKQKDKVAELENSEFRAFSSFKNRVYLDTVSGSLTIYNLTSSDEDEYEMESPNITDTMKFFLYVLESLPSPTLTCALTNGSIEVQCMIPEHYNSHRGLIMYSWDCPMEQCKRNSTSIYFKMENDLPQKIQCTLSNPLFNTTSSIILTTCIPSSGHSRHRGGGGSHHHHHHHH", "°C", 59.5),
]
